experiment: Biodistribution in ICR mice after an iv injection; type: in vivo; conditions: Bone, 2 min after iv injection
Give % dose/organ for every item shown.
Answer format: number, then unit.

[[record]]
compound = "CNc1ccc(-c2ccc3nc(OCCOCCOCC[18F])ccc3c2)cc1 [[^18F]34a]"
property = "% dose/organ"
assayresult = "3.82 ± 0.33 % dose/organ"

[[record]]
compound = "CN(C)c1ccc(-c2ccc3nc(OCCOCCOCC[18F])ccc3c2)cc1 [[^18F]32a]"
property = "% dose/organ"
assayresult = "4.63 ± 0.32 % dose/organ"

[[record]]
compound = "CNc1ccc(-c2ccc3cc(OCCOCCOCCF)ccc3c2)cc1"
property = "% dose/organ"
assayresult = "7.38 ± 3.40 % dose/organ"


Consider the record given below.
**Query** Recorded % dose/organ for CNc1ccc2cc(-c3ccc(OCCOCCOCC[18F])cc3)ccc2c1 [[^18F]19a] , please?
**Result** 4.42 ± 0.82 % dose/organ
